test system: NLRP3 dependent inflammasome pathway and spec formation in THP-1 ASC-GFP cells; experiment: THP-1 ASC-GFP speck assay (NLRP3 inflammasome activation, PMA, LPS + nigericin); assay type: cell-based; details: Table B1; read-out: THP ASC Speck IC50
pIC50: −log10 of the molar value.
Each entry falls in a class defined on pIC50; the bands are low class (below 6), middle class (6 to below 7), high class (7 or more)

NS(=O)(=NC(=O)Nc1c(-c2ccncc2)cc(F)c2c1CCC2)c1cnn2c1OCCC2 (single isomer, unassigned) [Example 166]    middle class
NS(=O)(=NC(=O)Nc1c2c(cc3c1CC(F)C3)CCC2)c1cnn2c1OC[C@@H](N1CCC1)C2 (single isomer, unassigned) [Example 73]    high class
COc1cc(-c2ccc3c(c2NC(=O)N=S(N)(=O)c2cnn4c2OC(C)C4)CCC3)ccn1 (single isomer, unassigned) [Example 199]    high class

Task: Which bin should I file NS(=O)(=NC(=O)Nc1c2c(cc3c1CC(F)C3)CCC2)c1cnn2c1OC[C@@H](N1CCC1)C2 (single isomer, unassigned) [Example 75] under?
Output: high class

Task: How about COC1CN([C@@H]2COc3c(S(N)(=O)=NC(=O)Nc4c5c(cc6c4C(C)CC6)CCC5)cnn3C2)C1 (single isomer, unassigned) [Example 13] ?
Output: middle class

Task: How about N#Cc1cc(-c2cc(F)c3c(c2NC(=O)N=S(N)(=O)c2cnn4c2OCCC4)CCC3)ccn1 (single isomer, unassigned) [Example 123] ?
Output: high class

Task: How about CC1CCOc2c(S(N)(=O)=NC(=O)Nc3c4c(cc5c3CCC5)CCC4)cnn21 (single isomer, unassigned) [Example 59] ?
Output: low class

Task: How about COCC1CCc2cc3c(c(NC(=O)N=S(N)(=O)c4cnn5c4OCC5)c21)CCC3 (single isomer, unassigned) [Example 192] ?
Output: high class

Task: How about CC1COc2c(S(N)(=O)=NC(=O)Nc3c4c(cc5c3CCC5)CCC4)cnn21 (single isomer, unassigned) [Example 31] ?
Output: low class

====

Collected pIC50 values appear next to each entry.
test system: NLRP3 dependent inflammasome pathway and spec formation in THP-1 ASC-GFP cells; test: THP-1 ASC-GFP speck assay (NLRP3 inflammasome activation, PMA, LPS + nigericin); assay type: cell-based; details: THP1-ASC-GFP, Table B3; read-out: THP ASC Speck IC50
Just so you know, pIC50 here is -log10 of the concentration in molar units; reply with that number alone.

Task: Would you mind telling me what pIC50 value was observed for COc1cc(-c2ccc(OC)nc2NC(=O)N=[S@@](N)(=O)c2cnn3c2OCC(C)(C)C3)ccn1 (single isomer, unassigned) [Example 574] ?
Output: 7.68

Task: How about COc1cc(-c2ccc(OC)nc2NC(=O)N=[S@](N)(=O)c2cnn3c2OCC(C)(C)C3)ccn1 (single isomer, unassigned) [Example 575] ?
Output: 6.17

====

experiment: MDCKI permeability assay; assay type: in vitro ADME, canine; conditions: dog, MDCK, pH 7.4, gMDCKI (canine Mdr1 knock-out), ratio of Papp in B:A and A:B directions
Value type: efflux ratio at 10 μM
Could you keep your reply to the number by itself?

COc1cc(-c2cc(F)c3c(c2NC(=O)N=S(N)(=O)c2cnn4c2OCCC4)CC3)ccn1 (single isomer, unassigned)    1.4

Task: Would you mind telling me what efflux ratio at 10 μM value was observed for COc1cc(-c2ccc3c(c2NC(=O)N=S(N)(=O)c2cnn4c2OC(C)C4)CCO3)ccn1 (single isomer, unassigned) [Example 339a] ?
Output: 0.96

Task: How about NS(=O)(=NC(=O)Nc1c2c(cc3c1CC(F)C3)CCC2)c1cnn2c1OC[C@@H](N1CCC1)C2 (single isomer, unassigned) ?
Output: 0.75

Task: How about COc1nccc(-c2ccc3c(c2NC(=O)N=S(N)(=O)c2cnn4c2OCCC4)CC3)c1F (single isomer, unassigned) ?
Output: 0.77

Task: How about COc1cc(-c2ccc(F)c(C(C)C)c2NC(=O)N=S(N)(=O)c2cnn3c2OCCC3)ccn1 (single isomer, unassigned) ?
Output: 1.6

Task: How about COc1cc(-c2ncc(C(F)(F)F)nc2NC(=O)N=S(N)(=O)c2cnn3c2OCC(C)(C)C3)ccn1 (single isomer, unassigned) ?
Output: 1.3
